- Test system: SW-620
- protocol-details: NCI tumour cell line growth inhibition, 48 h
Active and inactive are the calls of the source. Rule as the data show it: active = GI50 up to about 1.1 µM and inactive = higher.
Tick one outcome: 1 (active), 0 (inactive)

compound	class-assignment
Oc1nc2nnc(COc3ccc(Cl)cc3Cl)n2nc1Cc1ccccc1	0
COc1cc2c(cc1OC)NC(=O)NC(Cc1ccc3c(c1)OCO3)CC2 (stereo not given)	0

Input line: Could you kindly confirm the outcome this assay logged for Cc1ccccc1CN1CC2=C(CCN(Cc3ccccc3)C2=O)N2CCN=C12 ?
Output line: 0

Input line: Could you kindly confirm the outcome this assay logged for N=C1NC(c2ccc(Cl)cc2)=CC(c2cccc(Cl)c2)S1 (stereo not given) ?
Output line: 0

Input line: Could you kindly confirm the outcome this assay logged for CC12c3ccccc3C(OC=O)(c3ccccc31)C1(C)c3ccccc3C2(OC=O)c2ccccc21 ?
Output line: 0
